Tested on: Hela, human cervical carcinoma
Assay: preliminary anti-tumor screening in vitro, MTT method
Assay type: cell-based
Conditions: 10 μM, read-out: inhibition rates (%) Hela
Method: The test methods used in this test example are routine methods for anti-tumor activities test in pharmaceutical area, for example, referring to the following reference: (J. Immunol Method, 1983, 65, 55). […] Inhibition rates of the compounds were measured under concentrations of 0.1 μM, 1 μM or 10 μM.
Measure: inhibition at 10 µM (%)

{"columns": ["Molecule", "Units Label", "Numeric Value"],
 "data": [
  ["COc1ccc(NC(=O)[C@H](Cc2ccccc2)NC(=O)N[C@@H](CC(C)C)B2OC3C[C@H]4C[C@H](C4(C)C)[C@@]3(C)O2)cc1 (stereo partly drawn)", "%", 32.1],
  ["COc1ccc(NC(=O)[C@H](Cc2ccccc2)NC(=O)N[C@@H](CC(C)C)B(O)O)cc1", "%", 32.9],
  ["CC(C)C[C@H](NC(=O)CNC(=O)Nc1cc(Cl)ccc1Cl)B(O)O", "%", 43.4],
  ["CC(C)C[C@H](NC(=O)[C@H](Cc1ccccc1)NC(=O)Nc1cccc(OCc2ccccc2)c1)B(O)O", "%", 39.6],
  ["CC(C)C[C@H](NC(=O)N[C@@H](Cc1ccccc1)C(=O)Nc1cccc(OCc2ccccc2)c1)B(O)O", "%", 25.4],
  ["CC(C)C[C@H](NC(=O)[C@H](Cc1ccccc1)NC(=O)c1cnccn1)B(O)O [positive control, bortezomib, reference compound]", "%", 47.3],
  ["COc1ccc(OC)c(CNC(=O)N[C@@H](Cc2ccccc2)C(=O)N[C@@H](CC(C)C)B2OC3CC4CC(C4(C)C)[C@]3(C)O2)c1 (stereo partly drawn)", "%", 55],
  ["CC(C)C[C@H](NC(=O)CNC(=O)Nc1cccc(OCc2ccccc2)c1)B(O)O", "%", 29.9],
  ["CC(C)C[C@H](NC(=O)[C@H](Cc1ccccc1)NC(=O)[C@H](Cc1ccccc1)NC(=O)Nc1cccc(OCc2ccccc2)c1)B(O)O", "%", 75.7]
]}

* * *

system: BGC-823, liver cancer; experiment: preliminary anti-tumor screening in vitro, SRB method; format: cell-based; settings: Homo sapiens, 0.1 μM, read-out: inhibition rates (%) BGC-823
Measured inhibition at 0.1 µM by item
Measure: inhibition at 0.1 µM (%)

{"columns": ["Molecule", "Units Label", "Numeric Value"],
 "data": [
  ["CC(C)C[C@H](NC(=O)[C@H](Cc1ccccc1)NC(=O)NCc1cccc(Cl)c1Cl)B(O)O", "%", 50],
  ["COc1ccc(CNC(=O)[C@H](Cc2ccccc2)NC(=O)N[C@@H](CC(C)C)B(O)O)cc1", "%", 7.79],
  ["CC(C)C[C@H](NC(=O)[C@H](Cc1ccccc1)NC(=O)c1cnccn1)B(O)O [positive control, bortezomib, reference compound]", "%", 41],
  ["CC(C)C[C@H](NC(=O)N[C@@H](Cc1ccccc1)C(=O)NCC1CCCO1)B(O)O (stereo partly shown)", "%", 4.73],
  ["CC(C)C[C@H](NC(=O)[C@H](Cc1ccccc1)NC(=O)Nc1cccc(OCc2ccccc2)c1)B(O)O", "%", 6.01],
  ["COc1ccc(CNC(=O)N[C@@H](Cc2ccccc2)C(=O)N[C@@H](CC(C)C)B(O)O)cc1", "%", 7.38],
  ["CC(C)C[C@H](NC(=O)N[C@@H](Cc1ccccc1)C(=O)Nc1cnccn1)B(O)O", "%", 4.88],
  ["CC(C)C[C@H](NC(=O)N[C@@H](Cc1ccccc1)C(=O)Nc1cnccn1)B1OC2C[C@H]3C[C@H](C3(C)C)[C@@]2(C)O1 (stereo partly shown)", "%", 2.21],
  ["CC(C)C[C@H](NC(=O)N[C@@H](Cc1ccccc1)C(=O)N[C@@H](CC(C)C)C(=O)Nc1cnccn1)B(O)O", "%", 6.01],
  ["COc1ccc(NC(=O)[C@H](Cc2ccccc2)NC(=O)N[C@@H](CC(C)C)B(O)O)cc1", "%", 4.74]
]}

* * *

target: 20S proteasome extracted from rat liver (CT-L) (Rattus norvegicus, UniProt P18421+P28075); construct: 20S proteasome extracted from rat liver; from tissue; host or cells: rat liver; experiment: inhibition of 20S proteasome, CT-L activity (fluorescent peptide); type: biochemical; settings: 2 μM; rat liver 20S proteasome, 37° C., 1 h; read-out: inhibition rates (%) CT-L
Binary call on inhibition at 2 µM: true from 90% upward, false beneath that.

{"columns": ["Compound", "Category Label"],
 "data": [
  ["CC(C)C[C@H](NC(=O)N[C@@H](Cc1ccccc1)C(=O)Nc1cnccn1)B(O)O [Example 6]", "false"],
  ["CC(C)C[C@H](NC(=O)N[C@@H](CC(C)C)C(=O)N[C@@H](CC(C)C)C(=O)Nc1cnccn1)B(O)O [Example 11]", "false"],
  ["CC(C)C[C@H](NC(=O)[C@H](Cc1ccccc1)NC(=O)Nc1cccc(OCc2ccccc2)c1)B(O)O [Example 16]", "false"],
  ["CC(C)C[C@H](NC(=O)[C@H](Cc1ccccc1)NC(=O)N[C@@H](Cc1ccccc1)C(=O)Nc1cnccn1)B(O)O [Example 24]", "true"],
  ["COc1ccc(OC)c(CNC(=O)N[C@@H](Cc2ccccc2)C(=O)N[C@@H](CC(C)C)B(O)O)c1 [Example 18]", "true"],
  ["COc1ccc(NC(=O)[C@H](Cc2ccccc2)NC(=O)N[C@@H](CC(C)C)B(O)O)cc1 [Example 8]", "false"],
  ["CC(C)C[C@H](NC(=O)[C@H](Cc1ccccc1)NC(=O)NCc1cccc(Cl)c1Cl)B(O)O [Example 20]", "true"],
  ["CC(C)C[C@H](NC(=O)[C@H](Cc1ccccc1)NC(=O)Nc1cnccn1)B(O)O [Example 17]", "false"]
]}

* * *

Entries and their inhibition at 1 µM values follow.
test system: BGC-823, liver cancer; assay: preliminary anti-tumor screening in vitro, SRB method; assay type: cell-based; details: Homo sapiens, 1 μM, read-out: inhibition rates (%) BGC-823

{"columns": ["Input Smiles", "inhibition at 1 µM, %"],
 "data": [
  ["CC(C)C[C@H](NC(=O)N[C@@H](Cc1ccccc1)C(=O)N[C@@H](CC(C)C)C(=O)Nc1cnccn1)B(O)O", 36.3],
  ["CC(C)C[C@H](NC(=O)N[C@H](Cc1ccccc1)C(=O)Nc1cnccn1)B(O)O", 7.38],
  ["CC(C)C[C@H](NC(=O)[C@H](Cc1ccccc1)NC(=O)NCc1ccccc1)B(O)O", 33.5],
  ["CC(C)C[C@H](NC(=O)N[C@@H](Cc1ccccc1)C(=O)N[C@@H](CC(C)C)C(=O)Nc1cnccn1)B1OC(C)(C)C(C)(C)O1", 17.8],
  ["CC(C)C[C@H](NC(=O)CNC(=O)Nc1cc(Cl)ccc1Cl)B(O)O", 9.01]
]}

* * *

system: MGC803 stomach cancer cells; assay: anti-tumor activity in vitro (IC50), MTT; assay type: cell-based; conditions: Homo sapiens, MGC-803; stomach cancer cells, MTT, 72 h; read-out: IC50 (μM) MGC803
Decision: IC50 beneath 0.007 µM gives Fulfilled; IC50 meeting or exceeding 0.007 µM gives Not fulfilled.

{"columns": ["Compound", "Category Label"],
 "data": [
  ["CC(C)C[C@H](NC(=O)[C@H](Cc1ccccc1)NC(=O)NCc1ccc(-c2ccccc2)cc1)B(O)O [Example 32]", "Fulfilled"],
  ["CC(C)C[C@H](NC(=O)[C@H](Cc1ccccc1)NC(=O)NCc1cccc(Cl)c1Cl)B(O)O [Example 20]", "Not fulfilled"],
  ["COc1ccc(CNC(=O)N[C@@H](Cc2ccccc2)C(=O)N[C@@H](CC(C)C)B(O)O)cc1 [Example 15]", "Not fulfilled"],
  ["CC(C)C[C@H](NC(=O)[C@H](Cc1ccccc1)NC(=O)c1cnccn1)B(O)O [positive control, bortezomib, reference compound]", "Fulfilled"],
  ["COc1ccc(OC)c(CNC(=O)N[C@@H](Cc2ccccc2)C(=O)N[C@@H](CC(C)C)B(O)O)c1 [Example 18]", "Not fulfilled"],
  ["CC(C)C[C@H](NC(=O)[C@H](Cc1ccccc1)NC(=O)N1CCc2ccccc2C1)B(O)O [Example 28]", "Fulfilled"]
]}

* * *

// reported inhibition at 1 µM for each item listed
system: BGC-823, liver cancer; assay: preliminary anti-tumor screening in vitro, SRB method; format: cell-based; settings: Homo sapiens, 1 μM, read-out: inhibition rates (%) BGC-823

{"columns": ["Compound", "Target Or Test System", "inhibition at 1 µM (%)"],
 "data": [
  ["CC(C)C[C@H](NC(=O)CNC(=O)Nc1cccc(OCc2ccccc2)c1)B(O)O", "BGC-823, liver cancer", 2.21],
  ["COc1ccc(CNC(=O)[C@H](Cc2ccccc2)NC(=O)N[C@@H](CC(C)C)B(O)O)cc1", "BGC-823, liver cancer", 14.9],
  ["CC(C)C[C@H](NC(=O)[C@H](Cc1ccccc1)NC(=O)NCc1cccc(Cl)c1Cl)B(O)O", "BGC-823, liver cancer", 47.1],
  ["CC(C)C[C@H](NC(=O)N[C@@H](Cc1ccccc1)C(=O)Nc1cnccn1)B(O)O", "BGC-823, liver cancer", 4.4],
  ["CC(C)C[C@H](NC(=O)N[C@@H](Cc1ccccc1)C(=O)NCC1CCCO1)B(O)O (stereo partly shown)", "BGC-823, liver cancer", -4.01],
  ["CC(C)C[C@H](NC(=O)N[C@@H](Cc1ccccc1)C(=O)Nc1cccc(OCc2ccccc2)c1)B(O)O", "BGC-823, liver cancer", 4.64],
  ["COc1ccc(NC(=O)[C@H](Cc2ccccc2)NC(=O)N[C@@H](CC(C)C)B(O)O)cc1", "BGC-823, liver cancer", 5.62]
]}
